Exercise: for every item that follows, state its recorded Kb.
# target-entity: UniProt P31389
# Sequence (P31389 whole entry): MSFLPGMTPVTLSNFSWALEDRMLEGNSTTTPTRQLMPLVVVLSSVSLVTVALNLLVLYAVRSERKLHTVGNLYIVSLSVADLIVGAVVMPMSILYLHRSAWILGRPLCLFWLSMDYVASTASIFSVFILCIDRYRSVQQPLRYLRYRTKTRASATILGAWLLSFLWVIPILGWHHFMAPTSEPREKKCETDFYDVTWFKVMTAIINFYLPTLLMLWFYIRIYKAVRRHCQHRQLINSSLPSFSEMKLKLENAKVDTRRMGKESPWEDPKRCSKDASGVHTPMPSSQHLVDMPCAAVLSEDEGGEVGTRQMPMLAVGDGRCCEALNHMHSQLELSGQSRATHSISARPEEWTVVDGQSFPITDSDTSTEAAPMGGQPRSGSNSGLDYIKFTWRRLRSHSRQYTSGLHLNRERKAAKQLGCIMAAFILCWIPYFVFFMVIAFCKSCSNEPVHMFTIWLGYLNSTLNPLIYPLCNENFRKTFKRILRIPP
# method: Antagonist activity at histamine H1 receptor in guinea pig ileum assessed as inhibition of histamine-induced […]
# Assay type: functional, tissue-based
# cond: read-out: pA2 (converted)
Kindly answer with a numeric value in µM, unit omitted.

Request - read-out Kb | tested on UniProt P31389 | compound NC(=NCCCc1cnc[nH]1)NC(=O)CC(c1ccc(F)cc1)c1ccccn1 (stereo not given)
3.72

Request - read-out Kb | tested on UniProt P31389 | compound Cc1nc[nH]c1CSCC(=O)NC(N)=NCCCc1cnc[nH]1
4.27

Request - read-out Kb | tested on UniProt P31389 | compound NC(=NCCCc1cnc[nH]1)NC(=O)CC1CCCCC1
2.45

Request - read-out Kb | tested on UniProt P31389 | compound Cc1[nH]cnc1CSCCNC(=N)NCCCc1c[nH]cn1 [IMPROMIDINE]
3.39
